Origin of values: ChEMBL document CHEMBL3988442

Test system: Plasmodium falciparum
test.details: Calibr Malaria Delayed Death Assay SOP
Type: functional, organism-based
Parameters: scale not given: in the data most compounds retested in dose-response had high values
condition.notes: concentration 4.99e-06 (unit not given; other assays of the set use mol/L)
Among all 38,000 compounds or so, about 1,200 (3.2%) showed an effect of 50% or more. The median lay at about -58%. This is one part of a sample in which strong results are shown more often than they occur.
Percent Effect listing for selected compounds.
measured.endpoint: Percent Effect (%)

compound: CCn1nc(C)c2nc(C(C)C)nc(NCc3ccccn3)c21
system: Plasmodium falciparum
unit.descriptor: %
quantitative.readout: 36.29

compound: COc1cc(C(=O)NCc2ccc3c(c2)CCCN3C)cc(OC)c1Br
system: Plasmodium falciparum
unit.descriptor: %
quantitative.readout: 65

compound: CC(c1cccc(O)c1)N(C)S(=O)(=O)c1cccnc1 (configuration not stated)
system: Plasmodium falciparum
unit.descriptor: %
quantitative.readout: 70.34

compound: CCOc1ccc(-c2c(C#N)c(N)nc3c2COCC3)cn1
system: Plasmodium falciparum
unit.descriptor: %
quantitative.readout: -92.51

compound: COC(=O)c1cccc(C(=O)NCc2ccc3c(c2)CCCN3C)c1
system: Plasmodium falciparum
unit.descriptor: %
quantitative.readout: -12.04

compound: NC(=O)c1cnc2n1CCN(C(=O)c1cccc(Cn3cccn3)c1)C2
system: Plasmodium falciparum
unit.descriptor: %
quantitative.readout: -26.24

compound: Cc1cc(C2CCCN(Cc3nnc(Cc4ccccc4)o3)C2)n[nH]1 (configuration not stated)
system: Plasmodium falciparum
unit.descriptor: %
quantitative.readout: -117.5

compound: Fc1ccc(CN2CCCCC2Cn2cncn2)c2ncccc12 (configuration not stated)
system: Plasmodium falciparum
unit.descriptor: %
quantitative.readout: 64.52

compound: CCC1CN(CC(=O)N2CCCC2)CCN1CCOC (configuration not stated)
system: Plasmodium falciparum
unit.descriptor: %
quantitative.readout: -62.36

compound: CCN1CC2(CC1=O)CN(Cc1ccoc1)CCN(C(=O)C(C)C)C2 (configuration not stated)
system: Plasmodium falciparum
unit.descriptor: %
quantitative.readout: -77.86

compound: Cn1cc(-c2cnc(N3CCOCC3)nc2)cc1C(=O)NCCC#N.O=C(O)C(F)(F)F
system: Plasmodium falciparum
unit.descriptor: %
quantitative.readout: -137.7

compound: CC(=O)NC[C@@H]1C=C(C)[C@H](CC(=O)NCCN(C)C)C[C@H]1C(C)C
system: Plasmodium falciparum
unit.descriptor: %
quantitative.readout: -26.76

compound: CCN1C[C@H]2C[C@H](C(=O)Nc3ccccc3)[C@@H](C1)O2.O=C(O)C(F)(F)F
system: Plasmodium falciparum
unit.descriptor: %
quantitative.readout: -59.56

compound: CCCS(=O)(=O)N1CC[C@@H]2[C@@H]1CC(=O)N2Cc1csc(C)n1
system: Plasmodium falciparum
unit.descriptor: %
quantitative.readout: -243.1

compound: O=C(Nc1cccc(OCC(F)F)n1)c1ccncc1
system: Plasmodium falciparum
unit.descriptor: %
quantitative.readout: -44.55

compound: CCOc1ccc2[nH]c3c(N(C)CC4OCCO4)ncnc3c2c1
system: Plasmodium falciparum
unit.descriptor: %
quantitative.readout: -160.2

compound: Cc1nn(C)c2nc(N3CCNC(=O)C3Cc3ccccc3)sc12 (configuration not stated)
system: Plasmodium falciparum
unit.descriptor: %
quantitative.readout: -89.32

compound: Cc1ccc2nc(CN3CCCCC3CCN3CCOCC3)cn2c1 (configuration not stated)
system: Plasmodium falciparum
unit.descriptor: %
quantitative.readout: 7.984

compound: Cc1noc(C)c1CNC1CCN(c2ccccc2OC(F)F)C1 (configuration not stated)
system: Plasmodium falciparum
unit.descriptor: %
quantitative.readout: 63.44

compound: O=S1(=O)c2cccnc2OC(COc2ccccc2)CN1CC1CC1 (configuration not stated)
system: Plasmodium falciparum
unit.descriptor: %
quantitative.readout: -105.2

compound: Cc1cc2n(n1)CC(CNCc1ccccc1Cn1cccn1)CN2 (configuration not stated)
system: Plasmodium falciparum
unit.descriptor: %
quantitative.readout: -15.62

compound: O=C(c1cscn1)N1CCc2ncc(Cn3cncn3)n2CC1
system: Plasmodium falciparum
unit.descriptor: %
quantitative.readout: -88.92

compound: O=C(Cc1n[nH]c(-c2cncc(Br)c2)n1)NCc1cccnc1
system: Plasmodium falciparum
unit.descriptor: %
quantitative.readout: -11.15

compound: CC(C)CN1CCC(NCCNc2cccnc2)CC1
system: Plasmodium falciparum
unit.descriptor: %
quantitative.readout: 78.75

compound: Cc1nnc(SC2CCc3ccccc3NC2=O)o1 (configuration not stated)
system: Plasmodium falciparum
unit.descriptor: %
quantitative.readout: -88.91

compound: CCN(C(C)c1cccc(O)c1)S(=O)(=O)c1cccnc1 (configuration not stated)
system: Plasmodium falciparum
unit.descriptor: %
quantitative.readout: 75.64

compound: Cc1ccc(CN2CCN(c3nc4c(s3)c(C)nn4C)C(C)C2=O)cc1 (configuration not stated)
system: Plasmodium falciparum
unit.descriptor: %
quantitative.readout: 68.91

compound: CC(c1cccc(O)c1)N(C)S(N)(=O)=O (configuration not stated)
system: Plasmodium falciparum
unit.descriptor: %
quantitative.readout: -84.23

compound: O=C(NCc1ccccc1-n1cccn1)N1CCN2CCCCC2C1 (configuration not stated)
system: Plasmodium falciparum
unit.descriptor: %
quantitative.readout: -71.32

compound: CN1CCCc2cc(CNC(=O)c3ccncc3)ccc21
system: Plasmodium falciparum
unit.descriptor: %
quantitative.readout: -23.61

compound: CCc1ncc(C(=O)N(C)CCc2nc3cc(OC)ccc3[nH]2)cn1
system: Plasmodium falciparum
unit.descriptor: %
quantitative.readout: -128

compound: Cc1nc(CNC(=O)NC(C)c2ccc3c(c2)OCCO3)cs1 (configuration not stated)
system: Plasmodium falciparum
unit.descriptor: %
quantitative.readout: -69.15

compound: O=C(N[C@@H]1CN(Cc2cccc(F)c2)C[C@H]1O)c1cscn1
system: Plasmodium falciparum
unit.descriptor: %
quantitative.readout: -187.1

compound: CC(c1cccnc1)N(C)S(C)(=O)=O (configuration not stated)
system: Plasmodium falciparum
unit.descriptor: %
quantitative.readout: -49.62

compound: O=C(Nc1ccncc1)NC1CCN(c2ccccc2OC(F)F)C1 (configuration not stated)
system: Plasmodium falciparum
unit.descriptor: %
quantitative.readout: 64.77

compound: Cc1noc(C)c1CNc1c(N2CCCC2)cccc1N1CCCC1
system: Plasmodium falciparum
unit.descriptor: %
quantitative.readout: -39.5

compound: CC(C)N1C[C@@H](CO)[C@H](c2ccccc2)S1(=O)=O
system: Plasmodium falciparum
unit.descriptor: %
quantitative.readout: -2.146

compound: CN(CCC(N)=O)Cc1cc(Br)cs1
system: Plasmodium falciparum
unit.descriptor: %
quantitative.readout: -77.34

compound: Cc1c(C)n(Cc2ccccn2)c2nc3c(c(N)c12)CCCCCC3
system: Plasmodium falciparum
unit.descriptor: %
quantitative.readout: 58.63

compound: C1CC(CO[C@@H]2CC[C@H]3[C@H]2OCCN3CC2CCOCC2)CCO1.O=C(O)C(F)(F)F
system: Plasmodium falciparum
unit.descriptor: %
quantitative.readout: -39.09

compound: Fc1ccc(CN2CCCC(Cn3cncn3)C2)c2ncccc12 (configuration not stated)
system: Plasmodium falciparum
unit.descriptor: %
quantitative.readout: -5.261

compound: N#Cc1cccc(OCCN2CCCC2C(=O)N2CCSCC2)c1 (configuration not stated)
system: Plasmodium falciparum
unit.descriptor: %
quantitative.readout: 50.57

compound: CN(Cc1ccc2c(c1)OCCO2)Cn1nc(C(C)(C)C)ccc1=O
system: Plasmodium falciparum
unit.descriptor: %
quantitative.readout: -39.48

compound: COc1ccccc1N1CCC(NCc2c(C)noc2C)C1 (configuration not stated)
system: Plasmodium falciparum
unit.descriptor: %
quantitative.readout: 24.81

compound: Fc1ccc(CN2CCOC(Cn3cncn3)C2)c2ncccc12 (configuration not stated)
system: Plasmodium falciparum
unit.descriptor: %
quantitative.readout: -95.84

compound: CC(NC1CCCC1)c1ccccc1-n1cccn1 (configuration not stated)
system: Plasmodium falciparum
unit.descriptor: %
quantitative.readout: 80.66

compound: O=c1c2ccc(Cl)cc2ncn1CCCN1CCCCC1CO (configuration not stated)
system: Plasmodium falciparum
unit.descriptor: %
quantitative.readout: -12.14
